- Target entity: T1, secretory phospholipase A2 (sPLA2) (Homo sapiens, UniProt P14555 P14555:21-144)
- T1 sequence: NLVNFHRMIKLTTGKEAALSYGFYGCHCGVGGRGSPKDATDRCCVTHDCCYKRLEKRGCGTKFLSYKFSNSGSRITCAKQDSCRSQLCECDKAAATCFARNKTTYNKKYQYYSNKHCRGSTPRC
- Assay summary: filter; biphasic, Kd2 33 nM, mole fraction 0.55; TBSC, 37 C
- Conditions used: tags: supplied by Eli Lilly
Test readout: Kd
Don't forget the unit after the value.

Inquiry: Please report the recorded Kd for 3 (ssRNA) RNA: GGGAGCUCAGAAUAAACGCUCAAAGCUCAUCGUCUCGCAAGGCGUAUCCUAUUUCGACAUGAGGCCCGGAUCCGGC .
Reply text: 1.9 nM
